Hello, the source for this data is PubChem BioAssay (NCI), in case you need it.

Test system: MDA-MB-435 melanoma
Experiment: NCI-60 one-dose screen, 48 h
Conditions: 10 µM unless noted
Compounds without any hit were thinned out: in the full panel of roughly 83,000, 20% have a hit. The source made the active and inactive calls. Rule for the calls: active = growth percent below 10; inactive = the rest.
API: response.call in 1 (yes) for active, 0 (no) for inactive

Lookup: Identify the outcome logged in this assay for the compound shown: CCNc1nc(-c2ccc(Cl)c(OC)c2)c(-c2ccnc(NCCCNS(=O)(=O)c3ccc(Cl)cc3)n2)s1
Found: 0 (no)

Lookup: Test call, this compound: OCCCC1CCN(C(Cc2ccccc2)c2ccccc2)CC1 (configuration not stated)
Found: 0 (no)

Lookup: // return assay outcome for C[C@]12C=CC(=O)C=C1CCC1C2[C@@H](O)C[C@@]2(C)C1CC[C@]2(O)C(=O)COC(=O)CCC(=O)O (some centres not stated)
Found: 0 (no)

Lookup: Outcome logged for COCCNC(=O)c1ccc(-c2nc3ccc4[nH]ncc4c3c3c2CCCC3)cc1 in this assay:
Found: 0 (no)

Lookup: Write down the call the test reported for this compound. Item: C/C(=C(/c1ccc(Cl)cc1)c1ccc(OCCN2CCCC2)cc1)c1ccc(Cl)cc1
Found: 0 (no)

Lookup: Recorded test call requested for Cc1nn(-c2ccccc2)c(Oc2ccccn2)c1-c1nc2ccccc2s1
Found: 0 (no)

Lookup: Hey, what did the test say about CC(C)CCC[C@@H](C)[C@H]1CC[C@H]2[C@@H]3CC=C4C[C@@H](C(C(=O)O)C(=O)O)CC[C@]4(C)[C@H]3CC[C@]12C ?
Found: 1 (yes)

Lookup: For CCN1CC(=O)N(/N=C2\C(=O)Nc3ccccc32)C1=S , which call appears in the assay record?
Found: 0 (no)

Lookup: Test call for this compound, please: Oc1c(Cl)cc(Cl)cc1/C=N/Nc1nnc(N/N=C/c2cc(Cl)cc(Cl)c2O)c2ccccc12
Found: 0 (no)

Lookup: Please state the recorded outcome for this compound: Clc1ccc(Nc2nnc(COc3ccccc3)c3ccccc23)cc1
Found: 1 (yes)

Lookup: Given CC1=C(C(=O)OC(C)C)C(c2ccc3c(c2)OCO3)NC(=S)N1 (configuration not stated) , state the outcome it received in this test.
Found: 0 (no)

Lookup: Please share the test call associated with CC1(C)CC[C@]2(c3nnc(-c4ccncc4)o3)CC[C@H]3C(=CC[C@H]4[C@@]3(C)CC[C@H]3C(C)(C)C(=O)CC[C@]43C)[C@@H]2C1 .
Found: 0 (no)

Lookup: Dear all, I need the recorded test outcome for O=C1Nc2ccc(Br)cc2/C1=N/c1n[nH]c(=S)s1 , thank you.
Found: 0 (no)

Lookup: Check the results log: what was the call for Cc1cc2c([nH]1)CSc1cc(S(=O)(=O)c3ccccc3)c(=O)[nH]c1-2 ?
Found: 0 (no)

Lookup: Please state the recorded outcome for this compound: CCOC(=O)CSc1ncnc2c1c(-c1ccccc1)c(-c1ccccc1)n2-c1ccc(C)cc1
Found: 0 (no)

Lookup: Assay result, entry CN1CCN(Cc2ccc3c(NNC(=O)c4ccccc4)nc4cc(F)ccc4n23)CC1 — outcome?
Found: 0 (no)

Lookup: Please let me know the test result on file for CO[C@]12C=C/C(=C(/C(=O)OCc3cccnc3)C(=O)CCCCCCCC[C@@]3(OC)C=C/C(=C(/C(=O)OCc4cccnc4)C(=O)CCCCCCCC1)O3)O2 .
Found: 1 (yes)

Lookup: What classification did O=C1Nc2ccccc2[C@]12CC(c1ccccc1)=NN2 end up with in this test?
Found: 1 (yes)

Lookup: Assay outcome for C/C(=N/O)c1ccc(F)cc1 : what was it?
Found: 0 (no)

Lookup: GET /call?item= O=C(c1ccc(-c2nc(CSc3nc4ccccc4s3)no2)cc1)N1CCSCC1 returns the recorded outcome of this test.
Found: 0 (no)

Lookup: Returns: the outcome recorded for CCN1CCN(Cc2cn(CC(=O)Nc3ccc4c(ccn4Cc4ccccc4)c3)nn2)CC1 in this assay.
Found: 0 (no)

Lookup: Tell me the recorded outcome of this test for CCOC(=O)C(=Cc1cccc(Br)c1)C(=O)OCC .
Found: 0 (no)

Lookup: Entry CCCCCCNC(=O)Oc1ccc(/C(=C(/C)Cc2ccc(OC)cc2)c2ccc(OCCCN(C)C)cc2)cc1 : call = ?
Found: 0 (no)

Lookup: Hello, I am checking results. What call was entered for Cc1ccccc1/C=C1\CN(C(=O)OC(C)(C)C)C/C(=C\c2ccccc2C)C1=O ?
Found: 0 (no)

Lookup: In this assay, the call recorded for O=S(=O)(NCCNc1cc(-c2c(-c3cccc(O)c3)nc3sccn23)ccn1)c1ccc(C(F)(F)F)cc1 was what?
Found: 0 (no)

Lookup: Field: outcome | Entry: C=C(C)[C@@H]1CC[C@]2(C(=O)N3CCN(C)CC3)CC[C@]3(C)[C@H](CC[C@@H]4[C@@]5(C)CC(=C/c6ccncc6)/C(=N/O)C(C)(C)[C@@H]5CC[C@]43C)[C@@H]12
Found: 0 (no)

Lookup: Assay outcome for CCN(CC)c1ccc(/C=C/C(=O)c2ccc(Nc3nc(Nc4ccccc4)nc(Nc4ccccc4)n3)cc2)cc1 : what was it?
Found: 0 (no)
